FYI, the data here is from patent US6706880B2.

# targetOfAssay: serotonin transporter (Rattus norvegicus)
# Construct: from tissue
# Sequence (P31652 whole entry): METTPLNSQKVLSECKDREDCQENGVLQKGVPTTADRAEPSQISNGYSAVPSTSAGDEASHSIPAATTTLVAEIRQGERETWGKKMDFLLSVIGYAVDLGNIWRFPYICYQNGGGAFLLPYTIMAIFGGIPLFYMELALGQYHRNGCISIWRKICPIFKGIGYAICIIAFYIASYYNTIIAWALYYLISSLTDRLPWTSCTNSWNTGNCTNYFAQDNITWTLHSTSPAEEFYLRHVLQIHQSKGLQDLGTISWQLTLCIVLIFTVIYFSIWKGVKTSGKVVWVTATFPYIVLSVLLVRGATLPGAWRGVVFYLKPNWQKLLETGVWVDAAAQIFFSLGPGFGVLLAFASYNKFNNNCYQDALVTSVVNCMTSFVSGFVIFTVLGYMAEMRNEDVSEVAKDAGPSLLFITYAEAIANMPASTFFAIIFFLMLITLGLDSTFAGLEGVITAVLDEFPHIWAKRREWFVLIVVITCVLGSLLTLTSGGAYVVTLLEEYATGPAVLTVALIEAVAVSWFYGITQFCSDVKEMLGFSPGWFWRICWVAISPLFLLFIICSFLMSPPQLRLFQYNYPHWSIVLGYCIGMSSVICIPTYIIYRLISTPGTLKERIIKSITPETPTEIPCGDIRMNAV
# experimentalDetails: Inhibition of [3H]paroxetine radioligand binding at the serotonin transporter
# conditionNotes: 5-HT=[3H] paroxetine; read-out: 5-HT IC50 for inhibition of radioligand binding
pIC50: −log10 of the molar value.
experimentalReadout: pIC50

> print(dat)
                                   molecule  recordedvalue
1  Cc1ccc(C2CC3CCC(C2c2cc(C)no2)N3C)cc1.Cl (stereo not drawn) [RTI-4229-171, Hydrochloride]           5.42
2  CN1C2CCC1C(C(=O)NCO)C(c1ccc(Cl)cc1)C2 (stereo not drawn) [RTI-4229-146]           7.01
3  COC(=O)C1C2CCC(CC1c1ccc(Cl)cc1)N2 (stereo not drawn) [RTI-4229-110]           8.38
4  CN1C2CCC1C(C(=O)OC1CC1)C(c1ccc(I)cc1)C2 (stereo not drawn) [RTI-4229-191]           7.81
5  C=Cc1ccc(C2CC3CCC(N3)C2C(=O)OC)cc1 (stereo not drawn) [RTI-4229-309]           8.65
6  Cc1cccc(OC(=O)C2C(c3ccc(Cl)cc3)CC3CCC2N3C)c1 (stereo not drawn) [RTI-4229-203]           5.67
7  COC(=O)C1C(c2ccc(I)cc2)CC2CCC1N2C (stereo not drawn) [RTI-4229-55]           8.38
8  CCc1ccc(C2CC3CCC(C2C(=O)OC)N3C)cc1 (stereo not drawn) [RTI-4229-83]           7.55
9  Cc1ccc(C2CC3CCC(C2C(=O)Oc2ccccc2)N3C)cc1 (stereo not drawn) [RTI-4229-120]           4.61

----------
Here, each record is paired with measured pIC50 data.
# targetOfAssay: norepinephrine transporter (UniProt Q9WTR4)
# experimentalDetails: Inhibition of [3H]nisoxetine radioligand binding at the norepinephrine transporter
# conditionNotes: read-out: NEN IC50 for inhibition of radioligand binding; NEN=[3H] nisoxetine
pIC50: −log10 of the molar value. Counter-ions that a name gives are not always drawn.
experimentalReadout: pIC50

> print(dat)
                                    compound  recordedvalue
 1  CN1C2CCC1C(c1ccccc1)C(c1ccccc1)C2 (centres unmarked) [RTI-4229-348]           5.57
 2  CN1C2CCC1C(c1nc(-c3ccccc3)no1)C(c1ccc(Cl)cc1)C2 (centres unmarked) [RTI-4229-130]           6.61
 3  CN1C2CCC1C(COc1ccc(I)cc1)C(c1ccc(Cl)cc1)C2 (centres unmarked) [RTI-4229-116]           6.01
 4  Cc1ccc([C@H]2C[C@@H]3CC[C@H]([C@H]2c2nnc(-c4ccccc4)o2)N3C)cc1 [RTI-4229-195, Hydrochloride]           5.88
 5  Cc1ccc(-c2cc([C@@H]3C4CCC(C[C@@H]3c3ccc(Cl)cc3)N4C)on2)cc1 (some centres unmarked) [RTI-4229-336]           5.77
 6  COC(=O)[C@@H]1C2CCC(C[C@@H]1c1ccc(I)cc1)N2 (some centres unmarked) [RTI-4229-98]           7.96
 7  CCOC(=O)CN1C2CCC1C(C(=O)OC)C(c1ccc(Cl)cc1)C2 (centres unmarked) [RTI-4229-251]           6.94
 8  Cc1ccc(C2CC3CCC(C2C(=O)Oc2cccc(C)c2)N3C)cc1 (centres unmarked) [RTI-4229-205]           5.67
 9  CN1C2CCC1[C@@H](CCl)[C@@H](c1ccc(Cl)cc1)C2 (some centres unmarked) [RTI-4229-108]           6.89
10  CN1C2CCC1[C@@H](c1cc(-c3ccc(Cl)cc3)no1)[C@@H](c1ccc(Cl)cc1)C2 (some centres unmarked) [RTI-4229-345]           5.28
11  COC(=O)[C@@H]1C2CCC(C[C@@H]1c1ccc3ccccc3c1)N2C (some centres unmarked) [RTI-4229-318]           7.68
12  CN1C2CCC1C(C(=O)Oc1ccccc1)C(c1ccc([N+](=O)[O-])cc1)C2 (centres unmarked) [RTI-4229-277]           5.24
13  COC(=O)[C@@H]1C2CCC(C[C@@H]1c1ccc(Cl)c(Cl)c1)N2C (some centres unmarked) [RTI-4229-111]           7.75
14  CC(C)OC(=O)C1C(c2ccc(I)cc2)CC2CCC1N2C (centres unmarked) [RTI-4229-121]           6.55
15  CN1C2CCC1C(C(=O)N1CCCCOCC1)C(c1ccc(Cl)cc1)C2 (centres unmarked) [RTI-4229-214]           5.07
16  COc1ccc(-c2noc(C3C(c4ccc(Cl)cc4)CC4CCC3N4C)n2)cc1 (centres unmarked) [RTI-4229-141]           6.08
17  Cc1ccc([C@H]2C[C@@H]3CC[C@H]([C@H]2c2ncc(-c4ccccc4)o2)N3C)cc1 [RTI-4229-178, Tartrate]           6.17
